# test.target: T1, synthetic peptide on HLA-A*02:01 (human)
# T1 peptide: RQFGPDWIVA
# assay.explanation: data from [20]; method not given; soluble, other
reported.endpoint: Kd (µM)
Report the figure in µM without appending any unit label.

Kindly indicate its recorded Kd. Item: 1E6 (TCR) alpha TRAV12-3*01 CDR3: AMRGDSSYKLI beta TRBV12-4*01 CDR3: ASSLWEKLAKNIQY
44.4

Data origin, for the record: paper PMC7793522
